Record form. Attribute: IC50. Fill in for each entry.
Target: P2X purinoceptor 7 (Rattus norvegicus)
Sequence (Q64663 whole entry): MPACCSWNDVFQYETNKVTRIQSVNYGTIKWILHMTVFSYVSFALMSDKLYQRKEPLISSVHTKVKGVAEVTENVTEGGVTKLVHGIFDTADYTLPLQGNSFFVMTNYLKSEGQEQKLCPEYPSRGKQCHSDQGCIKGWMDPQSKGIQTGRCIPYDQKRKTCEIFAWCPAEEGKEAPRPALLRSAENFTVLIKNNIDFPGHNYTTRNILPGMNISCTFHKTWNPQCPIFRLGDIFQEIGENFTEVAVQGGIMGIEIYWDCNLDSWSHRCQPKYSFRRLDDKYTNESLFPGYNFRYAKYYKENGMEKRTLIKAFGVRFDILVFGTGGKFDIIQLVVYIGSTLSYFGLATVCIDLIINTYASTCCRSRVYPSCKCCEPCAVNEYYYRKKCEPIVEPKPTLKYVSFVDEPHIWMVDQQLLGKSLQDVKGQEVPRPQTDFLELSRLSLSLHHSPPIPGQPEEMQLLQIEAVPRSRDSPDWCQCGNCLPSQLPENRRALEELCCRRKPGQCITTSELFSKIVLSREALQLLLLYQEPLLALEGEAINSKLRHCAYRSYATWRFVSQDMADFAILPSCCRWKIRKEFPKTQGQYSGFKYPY
Experiment: Antagonist activity at rat recombinant P2X7 receptor assessed as inhibition of calcium flux by FLIPR assay
Record the result as number plus unit.

Consider the following illustrative entries.
• COc1ccc(CC(=O)N2CCN(C(=Nc3ccccc3C)NC#N)CC2c2ccccc2)cc1OC (stereo in doubt; 26) = 140 nM
• COc1ccc(CC(=O)N2CCN(C(=Nc3ccccc3C)NC#N)[C@H](C(C)C)C2)cc1OC = 16000 nM
• Cc1ccccc1N/C(=N\C#N)N1CCN(C(=O)Cc2ccoc2)C(c2ccccc2)C1 (centres undefined) = 250 nM
• COc1ccc(CC(=O)N2CCN(/C(=N/C#N)Nc3ccccc3C)CC2C(C)(C)C)cc1OC (centres undefined) = 420 nM
• Cc1cc(CC(=O)N2CCN(/C(=N/C#N)Nc3ccccc3C)CC2c2ccccc2)no1 (centres undefined) = 610 nM
• Cc1ccccc1N/C(=N\C#N)N1CCN(C(=O)Cc2ccsc2)C(c2ccccc2)C1 (centres undefined) = 270 nM
• Cc1ccccc1N/C(=N\C#N)N1CCN(C(=O)Cc2c[nH]cn2)C(c2ccccc2)C1 (centres undefined) = 14000 nM
• COc1ccc(CC(=O)N2CCN(C(=Nc3ccccc3C)NC#N)C(c3ccccc3)C2)cc1OC (centres undefined) = 220 nM

Read the next record carefully.
Would you kindly share the measured IC50 for Cc1ccccc1N/C(=N\C#N)N1CCN(C(=O)Cc2c[nH]c3ccccc23)C(c2ccccc2)C1 (centres undefined) ?
210 nM
